# SYSTEM: T1, T3.30: Biotin-LC linker-GVYKS[PO3H2]PVVSGDTS[PO3H2]PRHL-NH2 (reading uncertain; also: printed as Biotin-LC linker-GVYKS[PO3H2]PVVSGDTS[PO3H2]PRHL-NH2)
# T1 construct: Human Tau 393-408 with an added N-terminal Gly; two lots used: MI89P9-P12-2 (64% pure) and MI89P9-P12-3 (87% pure); also called Phospho-tau peptide; phosphopeptide T3.30
# T1 peptide: {Biotin-LC linker}-GVYK[pS]PVVSGDT[pS]PRHL-NH2
# TEST: SPR (Biacore X), T3.30 on streptavidin chip, antibody injected, 1:1 Langmuir fit; peptide lot 87% pure
pKd: −log10 of the molar value. [ ]: non-standard residue; d: D form. The star is where a group is joined. Biotin = O=C1N[C@H]2[C@H](CS[C@H]2CCCCC(=O)*)N1; pS = N[C@@H](COP(=O)(O)O)C(=O)O; LC linker = not defined here
READOUT KIND: pKd

* ACI-35-2A1-Ab1 (antibody, IgG2b, V domains shown, Biotinylated (-BT) in the AlphaLISA and as detector in the Setup 1 ELISA; also called ACl-35-2A1-Ab1; hybridoma A4-2A1-18) VH: EVQLQQSGPELVKPGASVKISCKASGYTFTDYYMNWVKQSHGKSLEWIGDINPNNGGTSYNQKFKGKATLTVDKSSSTAYMELRSLTSEDSAVYYCVREGRFAYWGHGTLVTVSA VL: DIVMTQAAPSVPVTPGESVSISCRSSKSLLHSNGNTYLYWFLQRPGQSPQLLIHRMSNLASGVPDRFSGSGSGTAFTLRISRVEAEDVGVYYCMQHLKSPYTFGGGTKLEIK | 7.42

All values here come from patent US20140294731A1.
